- Study target: Sodium channel protein type 9 subunit alpha (Mus musculus)
- Sequence (Q62205 whole entry): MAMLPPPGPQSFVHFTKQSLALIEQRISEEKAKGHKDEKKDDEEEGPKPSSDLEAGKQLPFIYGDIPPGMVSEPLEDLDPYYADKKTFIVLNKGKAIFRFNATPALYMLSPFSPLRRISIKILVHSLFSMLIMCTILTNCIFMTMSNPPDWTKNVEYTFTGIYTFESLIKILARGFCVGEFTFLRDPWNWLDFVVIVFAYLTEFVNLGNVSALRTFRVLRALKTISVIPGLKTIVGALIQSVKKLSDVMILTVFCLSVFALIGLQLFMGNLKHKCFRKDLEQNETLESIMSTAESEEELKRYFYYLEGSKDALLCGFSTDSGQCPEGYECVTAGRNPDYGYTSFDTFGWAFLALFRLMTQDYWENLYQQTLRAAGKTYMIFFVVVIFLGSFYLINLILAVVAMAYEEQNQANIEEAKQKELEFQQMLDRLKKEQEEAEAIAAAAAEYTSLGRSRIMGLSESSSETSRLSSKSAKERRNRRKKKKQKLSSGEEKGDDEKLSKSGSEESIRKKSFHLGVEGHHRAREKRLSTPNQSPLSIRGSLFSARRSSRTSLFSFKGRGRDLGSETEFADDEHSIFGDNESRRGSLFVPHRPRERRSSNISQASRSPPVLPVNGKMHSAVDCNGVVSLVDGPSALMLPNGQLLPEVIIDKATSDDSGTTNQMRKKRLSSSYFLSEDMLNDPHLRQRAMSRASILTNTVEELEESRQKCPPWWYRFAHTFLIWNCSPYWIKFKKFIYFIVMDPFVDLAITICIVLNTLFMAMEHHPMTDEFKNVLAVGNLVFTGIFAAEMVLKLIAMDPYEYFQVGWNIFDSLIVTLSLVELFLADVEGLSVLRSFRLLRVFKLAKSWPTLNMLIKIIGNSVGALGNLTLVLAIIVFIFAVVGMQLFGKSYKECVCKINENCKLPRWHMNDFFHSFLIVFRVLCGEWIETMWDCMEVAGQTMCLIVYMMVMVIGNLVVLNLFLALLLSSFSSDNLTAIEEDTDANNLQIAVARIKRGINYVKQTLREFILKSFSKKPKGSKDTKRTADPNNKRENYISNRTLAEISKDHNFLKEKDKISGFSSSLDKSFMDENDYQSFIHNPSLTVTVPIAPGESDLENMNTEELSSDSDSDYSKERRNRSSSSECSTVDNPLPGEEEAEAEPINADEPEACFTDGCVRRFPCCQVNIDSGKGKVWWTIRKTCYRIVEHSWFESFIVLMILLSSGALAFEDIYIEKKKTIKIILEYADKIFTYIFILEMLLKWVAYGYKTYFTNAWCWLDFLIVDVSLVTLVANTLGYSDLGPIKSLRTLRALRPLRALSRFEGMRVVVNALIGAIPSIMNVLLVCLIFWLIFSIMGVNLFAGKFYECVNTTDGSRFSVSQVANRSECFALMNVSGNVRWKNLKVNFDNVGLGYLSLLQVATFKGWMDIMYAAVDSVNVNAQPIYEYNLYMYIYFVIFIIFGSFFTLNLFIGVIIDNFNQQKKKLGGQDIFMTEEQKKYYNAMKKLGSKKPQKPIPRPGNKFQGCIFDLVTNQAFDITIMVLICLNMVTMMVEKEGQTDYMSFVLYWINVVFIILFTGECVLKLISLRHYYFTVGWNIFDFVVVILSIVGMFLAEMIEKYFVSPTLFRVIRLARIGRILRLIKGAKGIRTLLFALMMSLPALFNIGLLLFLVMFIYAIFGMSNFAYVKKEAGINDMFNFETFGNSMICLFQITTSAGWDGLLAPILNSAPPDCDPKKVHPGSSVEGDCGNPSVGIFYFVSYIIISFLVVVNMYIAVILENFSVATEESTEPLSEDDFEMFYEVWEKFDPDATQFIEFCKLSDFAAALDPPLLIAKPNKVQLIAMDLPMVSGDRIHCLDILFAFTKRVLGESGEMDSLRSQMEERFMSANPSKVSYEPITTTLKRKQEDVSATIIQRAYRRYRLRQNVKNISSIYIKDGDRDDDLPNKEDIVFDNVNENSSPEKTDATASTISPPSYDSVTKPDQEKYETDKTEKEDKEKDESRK
- Experimental protocol: Inhibition of mouse NaV1.7 by IonWorks quattro automated electrophysiology assay
Quick reference for IC50 among some compounds
Note: unit nM is implicit; provide only the numeric part.

The following compounds have reported results that may help.
Compound	Unit string	IC50
COc1cc(C(F)(F)F)ccc1COCC(O)CN1CCC(C(=O)Nc2ccccc2)CC1 (stereo not given)	nM	1300
O=C1c2ccccc2CN1C1CCN(CC(O)COc2ccccc2C(F)(F)F)CC1 (stereo not given)	nM	4800
COc1ccc(OCC(O)CN2CCC(N3Cc4ccccc4C3=O)CC2)cc1 (stereo not given)	nM	1300

Request: Please give the measured IC50 for this compound: O=C(c1ccccc1)c1ccc(OCC(O)CN2CCC(N3Cc4ccccc4C3=O)CC2)cc1 (stereo not given)
Response: 590

Request: Please give the measured IC50 for this compound: O=C(c1ccccc1)c1ccccc1OCC(O)CN1CCC(N2C(=O)COc3ccccc32)CC1 (stereo not given)
Response: 1300
